Entries and their measured Percent Effect follow.
# STUDY_SYSTEM: Chromo domain-containing protein 1 (Saccharomyces cerevisiae (strain ATCC 204508 / S288c) (Baker's yeast)) (UniProt P32657)
# Sequence (P32657 whole entry, the tested form may be a part): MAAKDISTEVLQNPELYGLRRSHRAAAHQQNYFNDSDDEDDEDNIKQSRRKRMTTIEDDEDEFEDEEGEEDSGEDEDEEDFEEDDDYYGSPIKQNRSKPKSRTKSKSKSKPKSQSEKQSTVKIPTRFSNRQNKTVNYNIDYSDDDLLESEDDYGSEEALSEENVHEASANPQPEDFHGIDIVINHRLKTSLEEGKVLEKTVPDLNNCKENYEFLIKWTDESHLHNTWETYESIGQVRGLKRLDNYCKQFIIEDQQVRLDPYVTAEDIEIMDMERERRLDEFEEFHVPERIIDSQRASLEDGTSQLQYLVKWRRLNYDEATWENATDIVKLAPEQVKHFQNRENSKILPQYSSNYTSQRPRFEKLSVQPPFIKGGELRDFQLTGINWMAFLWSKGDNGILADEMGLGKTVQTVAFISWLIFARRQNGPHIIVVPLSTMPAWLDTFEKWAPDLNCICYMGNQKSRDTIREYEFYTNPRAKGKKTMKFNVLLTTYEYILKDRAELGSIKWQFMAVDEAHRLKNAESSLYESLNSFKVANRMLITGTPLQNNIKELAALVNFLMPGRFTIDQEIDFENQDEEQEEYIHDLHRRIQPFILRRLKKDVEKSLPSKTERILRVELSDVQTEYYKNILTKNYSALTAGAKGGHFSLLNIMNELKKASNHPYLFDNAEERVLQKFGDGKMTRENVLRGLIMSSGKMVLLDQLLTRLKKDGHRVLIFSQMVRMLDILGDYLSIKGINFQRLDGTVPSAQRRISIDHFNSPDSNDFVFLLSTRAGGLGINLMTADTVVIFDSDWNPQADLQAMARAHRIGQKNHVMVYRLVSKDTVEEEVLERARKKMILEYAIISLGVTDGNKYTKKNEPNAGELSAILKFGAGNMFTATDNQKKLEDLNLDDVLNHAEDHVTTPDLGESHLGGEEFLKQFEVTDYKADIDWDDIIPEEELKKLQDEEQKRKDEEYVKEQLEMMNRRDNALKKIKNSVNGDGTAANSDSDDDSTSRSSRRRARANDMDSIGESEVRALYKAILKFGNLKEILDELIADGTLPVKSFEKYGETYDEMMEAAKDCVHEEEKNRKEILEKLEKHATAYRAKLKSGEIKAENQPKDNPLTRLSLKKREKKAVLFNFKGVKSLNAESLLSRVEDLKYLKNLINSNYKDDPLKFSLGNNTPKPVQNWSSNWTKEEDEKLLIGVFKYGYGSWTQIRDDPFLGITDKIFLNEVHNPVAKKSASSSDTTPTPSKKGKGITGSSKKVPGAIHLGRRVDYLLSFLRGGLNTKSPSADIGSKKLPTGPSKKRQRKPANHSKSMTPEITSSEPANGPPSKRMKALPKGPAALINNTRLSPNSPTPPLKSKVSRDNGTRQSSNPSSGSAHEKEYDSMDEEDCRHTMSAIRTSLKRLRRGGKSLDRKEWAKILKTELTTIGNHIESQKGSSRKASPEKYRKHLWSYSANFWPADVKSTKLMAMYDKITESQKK
# ASSAY_DETAILS: ScCHD-1 Enzyme Inhibition Assay
# Type: functional
# Set-up: scale not given: in the data most compounds retested in dose-response had high values
# ASSAY_CONDITIONS: 30 µM
Report the figure in % without appending any unit label.

MOLECULE	Percent Effect, %
COCc1cccc(NC(C)C(=O)N(C)Cc2ccccc2)c1 (stereo not drawn)	-14.3

Qu. Need Percent Effect of CCn1c(N)nc2cc(C(=O)NCCc3ccccc3C)cnc21 , thanks.
Ans. -12.1

Qu. Same read-out for Cn1c(C2CC2)nc2c1CCN(CCOc1ccc(C#N)cc1)C2 ?
Ans. -8.18

Qu. For COc1ccc(NC(=O)CCC2CCCN(Cc3ncon3)C2)c(C)c1 (stereo not drawn) then?
Ans. -6.4

Qu. Likewise for Cc1ncsc1C(=O)NC1CCN(CC(=O)N(C)C(C)(C)C#N)CC1 ?
Ans. 2.71

Qu. Same lookup for Cc1cc(C)n(CC2CCCN2C(=O)CCCNc2ncccn2)n1 (stereo not drawn) , please.
Ans. -0.0349

Qu. Now give it for CSc1sc(NC(=O)Cc2c(C)nc(C)[nH]c2=O)nc1C too.
Ans. -12.2

Qu. Now give it for Cc1ccoc1C(=O)N1CCO[C@H]2[C@H](OCC3CCOCC3)CC[C@@H]21 too.
Ans. -3.9

Qu. What about this molecule? CN(Cc1cccs1)C(=O)CS(=O)(=O)Cc1ccc(Cl)c(Cl)c1
Ans. -21.7

Qu. Entry Cc1ccc(N2CC[C@H]3OCC[C@@]3(C(=O)NC(C)C)C2)nn1 please
Ans. -5.52

Qu. Here is the next molecule: COc1cccc2cc(CNC(=O)N3CCCC(O)C3)oc12 (stereo not drawn)
Ans. -5.74

Qu. Same thing, different molecule: CCCS(=O)(=O)N1CCC(NC(=O)c2ccc(Cl)s2)CC1
Ans. -3.77

Qu. Next molecule: O=C1N(CCCc2ccccc2)CCCC1(O)CNCc1ccccc1 (stereo not drawn)
Ans. -3.9

Qu. And then NCC1CN(c2nc(-c3ccccc3)nc3c2CCNCC3)CCO1 (stereo not drawn) , what is it?
Ans. 0.577

Qu. Again, but for N#CC(Sc1nnnn1C1CCOCC1)C1CCCCC1 (stereo not drawn)
Ans. -4.6
